Target: GLUT1 (Homo sapiens, UniProt P11166)
Sequence (P11166 whole entry, species assumed): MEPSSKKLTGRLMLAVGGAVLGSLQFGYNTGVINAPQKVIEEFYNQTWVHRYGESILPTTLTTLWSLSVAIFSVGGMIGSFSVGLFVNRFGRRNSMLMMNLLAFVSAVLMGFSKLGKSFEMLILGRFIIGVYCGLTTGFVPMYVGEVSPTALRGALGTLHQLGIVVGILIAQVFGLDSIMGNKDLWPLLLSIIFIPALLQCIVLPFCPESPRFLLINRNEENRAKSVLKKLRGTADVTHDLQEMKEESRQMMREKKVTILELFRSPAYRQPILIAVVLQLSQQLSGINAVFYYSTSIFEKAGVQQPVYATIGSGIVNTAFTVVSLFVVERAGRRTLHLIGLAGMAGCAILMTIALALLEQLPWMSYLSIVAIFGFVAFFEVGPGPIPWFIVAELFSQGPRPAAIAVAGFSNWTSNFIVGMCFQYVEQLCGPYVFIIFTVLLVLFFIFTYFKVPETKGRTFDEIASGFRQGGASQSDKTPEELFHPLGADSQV
Assay: Indirect measurement of GLUT1 activity by quantification of intracellular ATP levels (glucose induced ATP increase)
Format: cell-based
Set-up: endogenous in cells; host or cells: DLD1 or CHO-K1
Settings: read-out: IC50 regarding glucose induced ATP increase (GLUT1 inhibition)
pIC50: −log10 of the molar value.
Overview of reported pIC50 across a group of compounds:
Endpoint: pIC50

Mol | Endpoint | Observed Result
Cc1nn(Cc2ccc(C(=O)NCCOc3ccccc3F)cc2)c(C)c1NC(=O)c1cc(C(F)(F)F)nc2ccc(Br)cc12 | pIC50 | 7.51
Cc1nn(Cc2ccc(C(=O)N[C@H](C)CO)cc2)c(C)c1NC(=O)c1cc(C(F)(F)F)nc2ccc(Br)cc12 | pIC50 | 6.64
Cc1nn(Cc2nccn2C)c(C)c1NC(=O)c1cc(C(F)(F)F)nc2ccc(Br)cc12 | pIC50 | 5.69
CCNC(=O)c1ccc(Cn2nc(C)c(NC(=O)c3cc(C(F)(F)F)nc4ccc(Br)cc34)c2C)cc1 | pIC50 | 8.52
COC(=O)c1cc(C(=O)Nc2c(C)nn(Cc3ccc(C#N)cc3)c2C)c2ccc(OC)cc2n1 | pIC50 | 6.64
Cc1c(NC(=O)c2cc(C(N)=O)nc3ccc(S(N)(=O)=O)cc23)c(C(F)(F)F)nn1Cc1ccc(C#N)cc1 | pIC50 | 5.27
COCc1noc(Cn2nc(C)c(NC(=O)c3cc(C(F)(F)F)nc4ccc(Br)cc34)c2C)n1 | pIC50 | 6.15
Cc1nn(Cc2ccc(C(=O)Nc3ccncn3)cc2)c(C)c1NC(=O)c1cc(C(F)(F)F)nc2ccc(Br)cc12 | pIC50 | 6.81
CCS(=O)(=O)N1CCC(Cn2nc(C(F)(F)F)c(NC(=O)c3cc(C(N)=O)nc4cc(F)ccc34)c2C)CC1 | pIC50 | 7.37
CCc1nn(Cc2ccc(F)cc2)c(CC)c1NC(=O)c1cc(C(N)=O)nc2cc(F)c(Cl)cc12 | pIC50 | 7.87
COc1ccc(Cn2nc(C(F)(F)F)c(NC(=O)c3cc(C(N)=O)nc4cc(F)c(Cl)cc34)c2C)cn1 | pIC50 | 8.89
Cc1c(NC(=O)c2cc(C(=O)NCCO)nc3cc(F)ccc23)c(C(F)(F)F)nn1Cc1ccc(C#N)cc1 | pIC50 | 6.61
Cc1cccc(Cn2nc(C)c(NC(=O)c3cc(C(N)=O)nc4cccc(F)c34)c2C)c1 | pIC50 | 8.08
Cc1nn(Cc2ccc(S(C)(=O)=O)cc2)c(C)c1NC(=O)c1cc(C(N)=O)nc2cc(F)ccc12 | pIC50 | 7.31
CCc1nn(Cc2ccc(F)cc2)c(CC)c1NC(=O)c1cc(C(N)=O)nc2cc(F)ccc12 | pIC50 | 7.22
COc1cc(C(=O)Nc2c(C)nn(Cc3ccccn3)c2C)c2ccccc2n1 | pIC50 | 6.15
CNC(=O)c1c(NC(=O)c2cc(C(F)(F)F)nc3ccc(Br)cc23)c(C)nn1Cc1ccc(F)cc1 | pIC50 | 8.29
Cc1nn(Cc2ccc(C(=O)NCCN3CCCCC3)cc2)c(C)c1NC(=O)c1cc(C(F)(F)F)nc2ccc(Br)cc12 | pIC50 | 6.89
Cc1c(NC(=O)c2cc(C(N)=O)nc3cc(F)ccc23)c(C(F)(F)F)nn1Cc1c(F)cccc1F | pIC50 | 7.52
COc1ccc2nc(O)cc(C(=O)Nc3c(C)nn(Cc4ccc(F)cc4)c3C)c2c1 | pIC50 | 6.74
Cc1nn(Cc2ccc(F)cc2)c(C)c1NC(=O)c1cc(C(N)=O)nc2ccccc12 | pIC50 | 8.72
COc1ccc(Cn2nc(C)c(NC(=O)c3cc(OC)nc4ccccc34)c2C)cc1 | pIC50 | 8.80
COc1cc(C(=O)Nc2c(C)nn(Cc3ccc(OC)c(F)c3)c2C)c2ccccc2n1 | pIC50 | 8.54
CCS(=O)(=O)N1CCC(Cn2nc(C)c(NC(=O)c3cc(C(N)=O)nc4ccccc34)c2C)CC1 | pIC50 | 8.68
Cc1nn(Cc2ccc(C(=O)N3CCC[C@@H]3CO)cc2)c(C)c1NC(=O)c1cc(C(F)(F)F)nc2ccc(Br)cc12 | pIC50 | 7.58
Cc1nn(Cc2ccc(F)cc2)c(C)c1NC(=O)c1cc(C(F)(F)F)nc2c(Cl)cc(Cl)cc12 | pIC50 | 7.80
Cc1c(NC(=O)c2cc(C(N)=O)nc3ccccc23)c(C(F)(F)F)nn1Cc1ccc(OC(F)(F)F)cc1 | pIC50 | 8.29
Cc1cc(Cn2nc(C(F)(F)F)c(NC(=O)c3cc(C(N)=O)nc4cc(F)c(Cl)cc34)c2C)no1 | pIC50 | 8.11
Cc1nn(Cc2ccc(F)c(F)c2)c(C)c1NC(=O)c1cc(C2CCC2)nc2ccc(Br)cc12 | pIC50 | 8.24
COc1c(C)nc2ccccc2c1C(=O)Nc1c(C)nn(Cc2ccc(F)cc2)c1C | pIC50 | 6.51
